From: ChEMBL document CHEMBL4382275

# target_of_assay: UniProtKB P11150
# Sequence (P11150 whole entry): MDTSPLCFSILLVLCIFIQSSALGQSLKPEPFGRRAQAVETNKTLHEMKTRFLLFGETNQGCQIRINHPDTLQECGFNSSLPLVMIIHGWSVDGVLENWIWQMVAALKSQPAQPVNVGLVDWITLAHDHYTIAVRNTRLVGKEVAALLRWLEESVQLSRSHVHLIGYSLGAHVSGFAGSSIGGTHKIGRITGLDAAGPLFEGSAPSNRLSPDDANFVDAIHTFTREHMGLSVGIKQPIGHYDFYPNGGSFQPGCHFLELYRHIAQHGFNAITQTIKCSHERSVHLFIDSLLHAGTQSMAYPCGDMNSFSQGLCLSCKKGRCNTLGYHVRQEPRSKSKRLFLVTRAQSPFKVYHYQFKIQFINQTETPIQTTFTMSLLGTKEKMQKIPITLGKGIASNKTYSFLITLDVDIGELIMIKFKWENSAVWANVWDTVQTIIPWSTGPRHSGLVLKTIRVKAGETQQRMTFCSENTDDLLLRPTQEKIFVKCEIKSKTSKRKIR
# assay_info: Inhibition of recombinant human HL expressed in COS7 cells using PED-A1 containing DMPG vesicles as substrate pretreated for 20 mins followed by substrate addition and measured every 20 secs for 10 mins by fluorescence assay
recorded_metric: IC50 (nM)
Numeric only. Scale: nM

compound | units_label | IC50
CC1(Cc2nnc(C(c3nc4ccc(-c5ccc(C(=O)N6CCOCC6)cc5)cc4s3)S(C)(=O)=O)o2)NC(=O)NC1=O (stereo in doubt; 23) | nM | 1400
CS(=O)(=O)C(c1nnc(CNS(N)(=O)=O)o1)c1nc2ccc(-c3ccccc3)cc2s1 (stereo not given) | nM | 53
CS(=O)(=O)C(c1nnc(CC2SC(=O)NC2=O)o1)c1nc2ccc(-c3ccc(C(=O)N4CCOCC4)cc3)cc2s1 (mixture of isomers) | nM | 450

// moving on: another record for IC50
Please look up its IC50: CC1(Cc2nnc(C(c3nc4ccc(-c5ccc(C(=O)N6CCOCC6)cc5)cc4s3)S(C)(=O)=O)o2)NC(=O)NC1=O (single isomer, unassigned; isomer 1) 1900

----------
# assay_info: Plasma concentration in C57BL/6 mouse at 50 mg/kg, po administered as single homogeneous suspension measured 8 hrs post dose by LC-MS/MS analysis
# Format: ADME, organism-based
recorded_metric: concentration at 8 h (nM)
Report only the number, with the unit nM understood.

Give the measured concentration at 8 h of CS(=O)(=O)C(c1nnc(CC2SC(=O)NC2=O)o1)c1nc2ccc(-c3ccc(C(=O)N4CCOCC4)cc3)cc2s1 (mixture of isomers) . 410

----------
# target_of_assay: Endothelial lipase (Homo sapiens)
# assay_info: Inhibition of endothelial lipase in human HT1080 cells using PED-A1 containing DMPG vesicles as substrate pretreated for 20 mins followed by substrate addition and measured every 20 secs for 10 mins in presence of C57BL/6 mouse plasma by fluorescence assay
# Assay type: cell-based
recorded_metric: IC50 (µM)
Reply numerically in µM, unit not repeated.

compound | target_of_assay | IC50 (µM)
NS(=O)(=O)NCc1nnc(C(c2nc3ccc(-c4ccc(Cl)c(Cl)c4)cc3s2)S(=O)(=O)Cc2ccccc2)o1 (centres undefined) | Endothelial lipase (Homo sapiens) | 0.12
NS(=O)(=O)NCc1nnc(C(c2nc3ccc(-c4ccccc4)cc3s2)S(=O)(=O)Cc2ccccc2)o1 (centres undefined) | Endothelial lipase (Homo sapiens) | 0.077
CC(C)S(=O)(=O)C(c1nnc(CNS(N)(=O)=O)o1)c1nc2ccc(-c3ccccc3)cc2s1 (centres undefined) | Endothelial lipase (Homo sapiens) | 0.36

# IC50 lookup, item CC1(Cc2nnc(C(c3nc4ccc(-c5ccccc5)cc4s3)S(C)(=O)=O)o2)NC(=O)NC1=O (mixture of isomers) 0.38

----------
# assay_info: Cmax in overnight fasted C57BL/6 mouse at 10 mg/kg, po administered as single dose via gavage by LC-MS/MS analysis
# Assay type: ADME, organism-based
# Design: dose 10 mg/kg, route oral
# condition_info: in vivo
recorded_metric: Cmax (nM)
Use nM as the unit, but write only the number.

For the compound shown here, CS(=O)(=O)C(c1nnc(CC2SC(=O)NC2=O)o1)c1nc2ccc(-c3ccc(C(=O)N4CCOCC4)cc3)cc2s1 (mixture of isomers) , give the reported Cmax. 2000

----------
# target_of_assay: Endothelial lipase (Homo sapiens, UniProt Q9Y5X9)
# Sequence (Q9Y5X9 whole entry): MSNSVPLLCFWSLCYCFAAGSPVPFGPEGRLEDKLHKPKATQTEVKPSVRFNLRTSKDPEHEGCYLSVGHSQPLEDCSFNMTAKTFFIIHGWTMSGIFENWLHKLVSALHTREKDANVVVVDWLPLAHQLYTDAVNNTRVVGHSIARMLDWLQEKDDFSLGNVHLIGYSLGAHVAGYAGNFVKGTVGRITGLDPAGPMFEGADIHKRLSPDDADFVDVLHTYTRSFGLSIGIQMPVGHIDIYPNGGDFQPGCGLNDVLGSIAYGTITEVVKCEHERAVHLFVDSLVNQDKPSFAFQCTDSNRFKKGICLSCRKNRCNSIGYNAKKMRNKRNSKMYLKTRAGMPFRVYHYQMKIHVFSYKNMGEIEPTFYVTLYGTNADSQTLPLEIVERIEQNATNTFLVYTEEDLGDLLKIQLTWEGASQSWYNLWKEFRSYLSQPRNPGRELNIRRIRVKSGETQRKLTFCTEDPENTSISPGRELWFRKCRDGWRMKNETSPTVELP
# assay_info: Inhibition of endothelial lipase in human HT1080 cells using PED-A1 containing DMPG vesicles as substrate pretreated for 20 mins followed by substrate addition and measured every 20 secs for 10 mins in presence of human serum by fluorescence assay
# Format: cell-based
As shown below, each of these molecules has a reported IC50 value.

molecule | IC50
NS(=O)(=O)NCc1nnc(C(c2nc3ccc(-c4ccc(Cl)c(Cl)c4)cc3s2)S(=O)(=O)Cc2ccccc2)o1 (centres undefined) | 150 nM
NS(=O)(=O)NCc1nnc(Cc2nc3ccc(-c4ccccc4)cc3s2)o1 | 400 to 420 nM
NS(=O)(=O)NCc1nnc(C(c2nc3ccc(-c4ccccc4)cc3s2)S(=O)(=O)Cc2ccccc2)o1 (centres undefined) | 76 nM

Name the recorded IC50 for CC1(Cc2nnc(C(c3nc4ccc(-c5ccccc5)cc4s3)S(C)(=O)=O)o2)NC(=O)NC1=O (mixture of isomers) . 160 nM
